# Test system: Fibroblast
# assay_text: Multiplex assay against human fibroblast
# Assay type: toxicity, cell-based
# test_context: 48 h, 1 µM, compound concentration 1 uM, replicate 1
experimental_readout: Population Tubulin-Different-Phenotype (%)

compound	tested_system	unit_abbrev	value
CC[C@H](C)C(=O)O[C@H]1C[C@@H](C)C=C2C=C[C@H](C)[C@H](CC[C@@H]3C[C@@H](O)CC(=O)O3)[C@H]21 [LOVASTATIN]	Fibroblast	%	39
CC(C)(O)CNc1ncc(-c2ccnc(Nc3ccnc(Cl)c3)n2)c(CC2CC2)n1	Fibroblast	%	24
CN(C)C(=O)/C(C#N)=C/c1ccc(-c2nc3cnc4[nH]ccc4c3n2C2CCCCC2)o1	Fibroblast	%	46
COc1cc(-n2cnc3cc(-c4ccc(Cl)cc4)sc3c2=O)ccc1OCCN1CCCC1	Fibroblast	%	22

====

Recorded Population Healthy Nuclei (%) by entry
# System: Fibroblast
# assay_text: Multiplex assay against human fibroblast
# Type: toxicity, cell-based
# test_context: 48 h, 1 µM, compound concentration 1 uM, replicate 2
experimental_readout: Population Healthy Nuclei (%)

molecule	value
Cc1csc2c(N[C@@H](C)CN3CCN(S(=O)(=O)c4ccc(Cl)c(Cl)c4)CC3)ncnc12	67%
c1cn2cc(-c3ccc4cn[nH]c4c3)nc(Nc3ccc(N4CCOCC4)cc3)c2n1	68%
C=CC(=O)Nc1ccc2ncnc(Nc3ccc(OCc4cccc(F)c4)c(Cl)c3)c2c1.Cc1ccc(S(=O)(=O)O)cc1	65%
Cc1c(-c2ccc(O)cc2)n(Cc2ccc(OCCN3CCCCCC3)cc2)c2ccc(O)cc12	68%
CC[C@H](C)C(=O)O[C@H]1C[C@@H](C)C=C2C=C[C@H](C)[C@H](CC[C@@H]3C[C@@H](O)CC(=O)O3)[C@H]21	73%
CN1CCC[C@@H]1CCO[C@](C)(c1ccccc1)c1ccc(Cl)cc1.O=C(O)/C=C/C(=O)O [CLEMASTINE FUMARATE]	51%
CN1CCN(CCOc2cc(OC3CCOCC3)c3c(Nc4c(Cl)ccc5c4OCO5)ncnc3c2)CC1	66%
O=C1NCN(c2ccccc2)C12CCN(CCCOc1ccc(F)cc1)CC2 [SPIRAMIDE]	83%
C=CC(=O)Nc1cccc(C(=O)Nc2ccc(Nc3cc(-c4[nH]c(SC)nc4C)ccn3)cc2)c1	61%
CNc1nc(NCc2ccc(NS(C)(=O)=O)cc2Cl)cc(-c2ccccn2)n1	69%
Cc1cc(C)cc(-c2cnc3cc(Cl)c(-c4cccc(O)c4)cc3c2OCCCN)c1	54%

====

# Tested on: HEK-293T
# assay_text: Incucyte cell viability with HEK293T; note: filed as whole numbers so only -1 and 0 and 1 occur
# Assay type: toxicity, cell-based
# test_context: human, 18 h, 10 µM, compound concentration 10 uM, replicate number 1, timepoint 18 hours
experimental_readout: Growth Rate

compound	value
N[C@H](C(=O)O)c1ccc(C(=O)O)c(C(=O)O)c1	1
Cc1c(-c2ccc(O)cc2)n(Cc2ccc(OCCN3CCCCCC3)cc2)c2ccc(O)cc12 [BAZEDOXIFENE]	0
Cc1c(C(=O)NC2CCCCC2)sc2nc3ccc(N)cc3n12.Cl	0
CNCCC(Oc1ccc(C(F)(F)F)cc1)c1ccccc1.Cl (centres undefined) [FLUOXETINE HYDROCHLORIDE]	0
CN(C)C(=O)N[C@H]1CC[C@H](CCN2CCN(c3cccc(Cl)c3Cl)CC2)CC1.Cl [CARIPRAZINE HYDROCHLORIDE]	0
CN1CCN(c2ccc(OC(F)(F)F)c(Nc3ncc4c(n3)-c3c(c(C(N)=O)nn3CCO)CC4)c2)CC1 [ONVANSERTIB]	0
Nc1c(C(=O)NCc2ccc(C(=O)NCCCC3CCCCC3)cc2)cnn1-c1ccccc1 [SR-318]	1
CN(C)[C@@H]1CCN(c2cc(-c3ccccc3)nc3ccnn23)C1 [(R)-ZINC-3573]	1
Cc1nc(-c2cn3c(n2)-c2ccc(-c4cnn(C(C)(C)C(N)=O)c4)cc2OCC3)n(C(C)C)n1 [TASELISIB]	0
O=C(O)[C@@H]1[C@@H](Cn2nnc3ccccc3c2=O)CC[C@H]1C(=O)c1ccc(OCCC2CCOCC2)cc1 [BAY-694]	1
OC1(c2ccc(Cl)cc2)CCN(Cc2c[nH]c3ccccc23)CC1	0
Cn1cc(C2=C(c3cn(C4CCN(Cc5ccccn5)CC4)c4ccccc34)C(=O)NC2=O)c2ccccc21 [ENZASTAURIN]	0
C[C@@H](NCCCc1cccc(C(F)(F)F)c1)c1cccc2ccccc12.Cl [CINACALCET HYDROCHLORIDE]	0
CC(=O)C1=C(C)N(c2cccc(C(F)(F)F)c2)C(=O)N[C@H]1c1ccc(C#N)nc1 [BAY-677]	1
Cc1csc2c(N[C@@H](C)CN3CCN(S(=O)(=O)c4ccc(Cl)c(Cl)c4)CC3)ncnc12	0
C=CC(=O)Nc1cccc(C(=O)Nc2ccc(Nc3cc(-c4[nH]c(SC)nc4C)ccn3)cc2)c1	0
Cc1cc(F)c(C(=O)Nc2cccc(-c3nncn3C(C)C)n2)cc1-n1cnc(C2CC2)c1 [SELONSERTIB]	0
CC(C)C(=O)Nc1n[nH]c2cc(-c3cccc(NS(=O)(=O)C4CC4)c3)ccc12	0
C[C@@H]1CCN(C(=O)CC#N)C[C@@H]1N(C)c1ncnc2[nH]ccc12.O=C(O)CC(O)(CC(=O)O)C(=O)O [TOFACITINIB CITRATE]	1
Cn1cc(-c2[nH]c3cc(NC(=O)[C@H](N)C4CCCCC4)cc4c3c2C=NNC4=O)cn1	0
O=S(=O)(c1ccccc1)N(CC(F)(F)F)c1ccc(C(O)(C(F)(F)F)C(F)(F)F)cc1 [T091317]	0
CNc1nc(NCc2ccc(NS(C)(=O)=O)cc2Cl)cc(-c2ccccn2)n1	0
COc1ccc(Oc2cc(NCCC(F)(F)F)c3ncc(-c4ccc(C(=O)NC5CC5)c(C)c4)n3n2)c(F)c1F [BAY-1217389]	0
C=CC(=O)Nc1ccc2ncnc(Nc3ccc(OCc4cccc(F)c4)c(Cl)c3)c2c1.Cc1ccc(S(=O)(=O)O)cc1	0
O=C(NCCCC1CCCCC1)c1ccc(CNC(=O)c2cnn(-c3ccccc3)c2C(F)(F)F)cc1 [SR-321]	0
O=C1NCN(c2ccccc2)C12CCN(CCCOc1ccc(F)cc1)CC2 [SPIRAMIDE]	0
CC(C)(O)CNc1ncc(-c2ccnc(Nc3ccnc(Cl)c3)n2)c(CC2CC2)n1	0
N#Cc1c(O)nc(SCc2cccc(F)c2F)nc1C1CC1	1
CCc1cc(C(C)=O)c(O)cc1OCCCCCC(C)(C)c1nn[nH]n1 [LY-255283]	0
COc1cc(-c2cn([C@H]3CCc4c(F)cccc4N(CC(F)(F)F)C3=O)nn2)ccc1-n1cnc(C)c1	1
CCn1c(=O)c(-c2ccc(Cl)cc2Cl)cc2cnc(Nc3ccc(N4CCNCC4)c(F)c3)nc21	0
Cc1cc(C)cc(-c2cnc3cc(Cl)c(-c4cccc(O)c4)cc3c2OCCCN)c1	0
CN([C@@H]1CCc2c(CC(=O)O)c3ccccc3n2C1)S(=O)(=O)c1ccc(F)cc1 [MK-7246]	0
CN(C)S(=O)(=O)c1ccc(NC(=S)N2CCC(C(O)(c3ccccc3)c3ccccc3)CC2)cc1	0

====

# Tested on: Fibroblast
# assay_text: Multiplex assay against human fibroblast
# Format: toxicity, cell-based
# test_context: 12 h, 1 µM, compound concentration 1 uM, replicate 1
Please use YES whenever Population Mitochondria Different-Phenotype (%) is not below 9%, and NO whenever it is.

compound	tested_system	qualitative_label
c1cn2cc(-c3ccc4cn[nH]c4c3)nc(Nc3ccc(N4CCOCC4)cc3)c2n1	Fibroblast	YES
CN(C)C(=O)/C(C#N)=C/c1ccc(-c2nc3cnc4[nH]ccc4c3n2C2CCCCC2)o1	Fibroblast	YES
Cc1csc2c(N[C@@H](C)CN3CCN(S(=O)(=O)c4ccc(Cl)c(Cl)c4)CC3)ncnc12	Fibroblast	YES
C[C@@]1(C(=O)Nc2ccc(F)nc2)CCCN1c1nc(Nc2cc(C3CC3)n[nH]2)c2cccn2n1	Fibroblast	YES
C=CC(=O)Nc1cc2c(Nc3ccc(F)c(Cl)c3)ncnc2cc1OCCCN1CCOCC1.Cl.Cl [CANERTINIB DIHYDROCHLORIDE]	Fibroblast	YES
NC(=O)Nc1cc(-c2cccc(F)c2)sc1C(=O)N[C@H]1CCCNC1	Fibroblast	NO
COc1cc2nccc(Oc3ccc(NC(=O)Nc4cc(C)on4)c(Cl)c3)c2cc1OC.O	Fibroblast	YES
C[C@@H](NCCCc1cccc(C(F)(F)F)c1)c1cccc2ccccc12.Cl [CINACALCET HYDROCHLORIDE]	Fibroblast	YES
CC[C@H](C)C(=O)O[C@H]1C[C@@H](C)C=C2C=C[C@H](C)[C@H](CC[C@@H]3C[C@@H](O)CC(=O)O3)[C@H]21	Fibroblast	YES
Cc1[nH]c(/C=C2\C(=O)Nc3ccc(S(=O)(=O)N(C)c4cccc(Cl)c4)cc32)c(C)c1C(=O)N1CCN(C)CC1	Fibroblast	NO
CC(C)NCC(O)COc1ccc(CCOCC2CC2)cc1.Cl (stereo unspecified) [BETAXOLOL HYDROCHLORIDE]	Fibroblast	NO
Cn1cc(-c2[nH]c3cc(NC(=O)[C@H](N)C4CCCCC4)cc4c3c2C=NNC4=O)cn1	Fibroblast	YES
COc1cccc([C@@H](C)NCCCc2ccccc2Cl)c1.Cl [TECALCET HYDROCHLORIDE]	Fibroblast	NO
